- TGT: Cathepsin S (Homo sapiens, UniProt P25774)
- Sequence (P25774 115-331, species assumed): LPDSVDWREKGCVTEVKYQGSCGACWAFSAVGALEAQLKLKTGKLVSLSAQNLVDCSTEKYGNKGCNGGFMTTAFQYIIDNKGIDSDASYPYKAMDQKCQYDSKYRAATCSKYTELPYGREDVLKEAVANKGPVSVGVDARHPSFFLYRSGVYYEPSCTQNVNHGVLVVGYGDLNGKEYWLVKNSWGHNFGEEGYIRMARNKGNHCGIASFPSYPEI
- RUN DESCRIPTION: Cathepsin S inhibition assay (fluorogenic peptide substrate)
- Type: biochemical
- CONDITION NOTES: Table II, compounds of Formula I; read-out: Ki Cat. S
Consider the following compounds; for each one, report its Ki.

Below, 5 compounds whose answers are already recorded.
COc1ccc(NCCNC(=O)[C@H](Cc2ccccc2)NC(=O)Nc2c(C)cccc2C(C)(C)C)cc1 :: < 100 nM
O=C(Cc1ccc(F)c(F)c1)N[C@@H](CC1CCCCC1)C(=O)NCCNc1ccc(F)cc1 :: < 100 nM
COc1ccc(NCCNC(=O)[C@H](CC2CCCCC2)NC(=O)c2ccc(-c3cc(C(F)(F)F)ccc3Cl)o2)cc1 :: < 100 nM
COc1ccc(NCCNC(=O)[C@H](CC2CCCCC2)NC(=O)c2ccc(-c3ccccc3OC)cc2)cc1 :: < 100 nM
O=C(N[C@@H](CC1CCCCC1)C(=O)NCCNc1ccc(OC(F)(F)F)cc1)c1ccsc1 :: < 100 nM

Please supply Ki for each of the following items, keeping them in order.
1. COc1ccc(NCCNC(=O)[C@H](CC2CCCCC2)NC(=O)c2ccc(Br)s2)cc1
2. O=C(N[C@@H](CC1CCCCC1)C(=O)NCCNc1ccc(OC(F)(F)F)cc1)C1CN(Cc2ccccc2)CCO1 (stereo partly drawn)
3. O=C(N[C@@H](CC1CCCCC1)C(=O)NCCNc1ccc(OC(F)(F)F)cc1)c1ccc(-c2ccc(OC(F)(F)F)cc2)o1
4. O=C(N[C@@H](CC1CCCCC1)C(=O)NCCNc1ccc(OC(F)(F)F)cc1)c1ccc(OCc2ccccc2)cc1
5. COc1ccc(NCCNC(=O)[C@H](Cc2ccccc2)NC(=O)CC2C=CCC2)cc1 (stereo partly drawn)
6. COc1ccc(NCCNC(=O)[C@H](CCC2CCCCC2)NC(=O)c2ccc(OCc3ccccc3)cc2)cc1
7. CS(=O)(=O)Nc1cccc(C(=O)N[C@@H](CC2CCCCC2)C(=O)NCCNc2ccc(F)cc2)c1
8. COc1ccc(NCCNC(=O)[C@H](Cc2ccc(-c3ccc(Cl)cc3)cc2)NC(=O)c2cccc(C)c2)cc1

1. < 100 nM
2. < 100 nM
3. < 100 nM
4. < 100 nM
5. < 1000 nM
6. < 10000 nM
7. < 100 nM
8. < 1000 nM

I need Ki for every entry listed below, if you could help.
1. COc1ccc(NCCNC(=O)[C@H](CCC2CCCCC2)NC(=O)c2cccc(-c3ccccc3)c2)cc1
2. COc1ccc(NCCNC(=O)[C@H](Cc2cccc(C)c2)NC(=O)c2cccc(C)c2)cc1

1. < 1000 nM
2. < 100 nM

====

What pKi was measured for each of the following?
- TGT: Cathepsin S (Homo sapiens, UniProt P25774)
- RUN DESCRIPTION: Cathepsin S inhibition assay (fluorogenic peptide substrate)
- Type: biochemical
- CONDITION NOTES: Table II, compounds of Formula I; read-out: Ki Cat. S
- Excerpt: “Inhibition constant”, Ki, is the dissociation constant of the enzyme-inhibitor complex, or the reciprocal of the binding affinity of the inhibitor to the enzyme. […] The inhibited rates are then fit by nonlinear regression to the following equation: […] The assumption being made for the classical inhibition described above is that the free inhibitor concentration is equal to the total inhibitor concentration. […]
pKi: −log10 of the molar value.

Examples with their reported pKi follow.
O=C(N[C@@H](CC1CCCCC1)C(=O)NCCNc1ccc(OC(F)(F)F)cc1)c1ccc(-c2ccccc2F)o1 :: > 7.00
COc1ccc(NCCNC(=O)[C@H](CC2CCCCC2)NC(=O)c2cccc(-c3csc(C)n3)c2)cc1 :: > 7.00

Next, consider the following compound.
pKi in this record for "CS(=O)(=O)c1ccc(C(=O)N[C@@H](CC2CCCCC2)C(=O)NCCNc2ccc(F)cc2)cc1" : > 6.00
